The reported numbers originate from patent US3997403A.

# assaySummary: Acute Toxicity
# Set-up: species or system Carworth Farms CF-1 mice
# conditionSummary: mouse, in vivo, iv, I.V.
quantityName: LD50 (mg/kg)
Number only, in mg/kg; omit the unit.

Record summary for CN[C@@H]1[C@@H](O)[C@@H](O[C@@H]2[C@@H](O)[C@H](O[C@H]3O[C@H]([C@@H](C)O)[C@@H](O)[C@H](O)[C@H]3N)[C@@H](N)C[C@H]2N)OC[C@]1(C)O [Antibiotic G-418] : reported LD50 = 140
